- testedSystem: T1, human ROR2 expressed on the cell surface (human, UniProt Q01974 34-943)
- T1 construct: Endogenous ROR2 of human tumour cell lines; also called cell surface ROR2; ROR2 on tumour cell lines
- T1 sequence (Q01974 34-943 limits assumed): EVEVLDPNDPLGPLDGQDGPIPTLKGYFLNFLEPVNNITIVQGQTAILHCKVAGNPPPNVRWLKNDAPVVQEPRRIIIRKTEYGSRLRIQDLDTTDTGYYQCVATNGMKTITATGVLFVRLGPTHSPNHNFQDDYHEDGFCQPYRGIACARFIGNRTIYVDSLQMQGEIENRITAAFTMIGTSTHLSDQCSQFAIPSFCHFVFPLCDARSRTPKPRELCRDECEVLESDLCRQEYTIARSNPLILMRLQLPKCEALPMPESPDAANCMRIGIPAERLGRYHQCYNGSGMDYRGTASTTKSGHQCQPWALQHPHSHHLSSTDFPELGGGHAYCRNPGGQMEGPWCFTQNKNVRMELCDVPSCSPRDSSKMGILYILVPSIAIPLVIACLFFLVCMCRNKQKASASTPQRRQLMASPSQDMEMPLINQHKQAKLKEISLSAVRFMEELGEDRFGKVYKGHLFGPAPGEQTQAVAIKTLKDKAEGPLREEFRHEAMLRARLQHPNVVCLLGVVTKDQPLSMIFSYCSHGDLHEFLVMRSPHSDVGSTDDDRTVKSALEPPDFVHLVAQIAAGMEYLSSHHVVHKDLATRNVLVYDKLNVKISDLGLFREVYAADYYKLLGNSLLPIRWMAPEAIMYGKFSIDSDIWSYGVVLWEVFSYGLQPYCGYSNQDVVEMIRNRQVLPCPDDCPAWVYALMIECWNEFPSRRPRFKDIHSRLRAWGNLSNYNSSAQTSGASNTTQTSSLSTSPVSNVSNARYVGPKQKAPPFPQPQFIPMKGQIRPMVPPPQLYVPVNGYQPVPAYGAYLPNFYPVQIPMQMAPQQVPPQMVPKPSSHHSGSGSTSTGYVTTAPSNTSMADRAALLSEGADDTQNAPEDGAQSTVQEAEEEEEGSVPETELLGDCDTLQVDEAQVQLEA
- assayMethodText: flow cytometry, HTB63 cells (melanoma)
- Parameters: unit not given here
- Method: Human tumour cell lines were authenticated using short tandem repeat (STR) analysis. They were cultured in RPMI1640 (Cellgro) supplemented with 10% fetal bovine serum (FBS, Life Technologies) at 37° C. in a 5% CO₂ humidified incubator. They were harvested, washed in PBS and reacted with ROR2-IgG at 1 ug/10⁶ tumour cells on ice for an hour. #901-IgG was used as a negative control at the same dose. […] Staining was analyzed on a FACSCalibur (BD Biosciences). […]
Provide the reported binding intensity of each item.
Numbers only.

In the examples that follow, each entry is paired with its recorded binding intensity.
1) ROR2-240 full length human IgG1 antibody (antibody, V domains shown, also called clone #240 IgG1) VH: QITLKESGPELVKPTQTLTLTCTFSGFSLSTSGMSVSWIRQPPGKALEWLARIDWDDDKYYSTSLKTRLTISKDTSKNQVVLTMTNTDPVDTATYYCARGFYLAYGSYDSWGQGTLVTVSS VL: QSALTQPASVSGSPGQSITISCTGTSGDVGGYNYVSWYQHHPGKAPKLIIYDVNKRPSGFSDRFSGSKSGNTASLTISGLQAEDEADYYCSSYTSTSTVFGGGTKLTVLG | 5
2) ROR2-23 full length human IgG1 antibody (antibody, V domains shown, The light chain of clone 023 is labelled kappa; also called clone #23; clone #023 IgG1) VH: EVQLVQSGAEVKKPGESLKISCQGSGYRFSKYWIGWVRQMPGKGLEWMGIIYPGDSDTRYSPSFQGQVTISADKSISTAYLQWSSLKASDTAMYYCARSFSSFIYDYWGQGTLVTVSS VL: ETTLTQSPGTLSVSPGERATLSCRASQSVSSNLAWYQQKRGQAPRLLIYGASTRATGIPVRFSGSGSGTEFTLTISRLEPEDFAVYYCQQYGRSPLTFGGGTKVDIKR | 16
3) ROR2-27 full length human IgG1 antibody (antibody, V domains shown, also called clone #27; clone #027 IgG1) VH: QVQLVESGAEVKKPGESLKISCKASGYSFSNYWIGWVRQMPGKGLEWMGIIYPDDSDTRYSPSFQGQVTISADKSISTAYLQWYSLKVADTAKYYCVRPRGAFDIWGQGTTVTVSS VL: QSVLTQPPSVSGAPGQRVTISCTGSSSNIGAGHAVHWYQQLPGTAPKLLIYDNANRPSGVPDRFSGSQSGTSASLAITGLQTGDEADYYCGTWDDSPSAYVFGTGTKVTVLG | 8

# per-item lookup of binding intensity; items listed below
1. ROR2-90 full length human IgG1 antibody (antibody, V domains shown, also called clone #90; antibody #90) VH: EVQLVESGPGLVKPSQTLSLTCTVSGGSISSGGYYWSWIRQHPGKGLEWIGYIYYSGSTYYNPSLKSRVTISVDTSKNQFSLKLSSVTAADTAMYYCARGGLYWTYSQDVWGQGTLVTVSS VL: QPVLTQPPSASGTPGQRVTISCSGSSSNIGSDYVSWYQQLPGTAPKLLIYRNDQRPSGVPDRFSGSKSGTSASLAISGLRSEDEADYYCVAWDDSLSGYVFGSGTKVTVLG
2. ROR2-241 full length human IgG1 antibody (antibody, V domains shown) VH: EVQLVQSGAEVKKPGASVKVSCKASGYTFTNYYIHWVRQAPGQGLEWMGIINPTSGRTRYAQRFQGRVTMTRDTSTNTVYMDLSSLRSEDTAMYYCARSGYYWGVNGDQWGQGTLVTVSS VL: SYELTQPLSVSVALGQTARITCGGNNIGSKNVHWYQQKPGQAPVLVIYRDSNRPSGIPERFSGSNSGNTATLTISRAQAGDEADYYCQVWDSSIVVFGGGTKLTVLG

Outgoing:
1: 27; 2: 16

Values compiled from patent US20180127503A1.
